molecular target: Tyrosyl-tRNA synthetase, putative (Trypanosoma cruzi (strain CL Brener)); test: Trypanosoma cruzi tyrosyl tRNA synthetase (TcYRS) _High Tyrosine SOP; type: functional; set-up: scale not given: in the data most compounds retested in dose-response had high values; settings: 30 µM
readout_name: Percent Effect (%)

compound	target_of_assay	readout_name	recorded_result
COc1ccccc1C(=O)N(C)Cc1ncc(C)c(OC)c1C	Tyrosyl-tRNA synthetase, putative (Trypanosoma cruzi (strain CL Brener))	Percent Effect	-0.952
CSc1ccc(S(=O)(=O)N2CCCCC2CCNC(C)=O)cc1 (configuration not stated)	Tyrosyl-tRNA synthetase, putative (Trypanosoma cruzi (strain CL Brener))	Percent Effect	7.29
Cc1cccc(NC(=O)Cn2ncc(SCC(N)=O)c(Cl)c2=O)c1C	Tyrosyl-tRNA synthetase, putative (Trypanosoma cruzi (strain CL Brener))	Percent Effect	5.38
CN(Cc1cnn(C)c1)C(=O)NC1CCS(=O)(=O)C1 (configuration not stated)	Tyrosyl-tRNA synthetase, putative (Trypanosoma cruzi (strain CL Brener))	Percent Effect	4.21
Cc1ccc(C(=O)N2CC[C@@H]3[C@H]2CCC(=O)N3c2ccccc2)o1	Tyrosyl-tRNA synthetase, putative (Trypanosoma cruzi (strain CL Brener))	Percent Effect	7.45
CCn1nccc1CNC(=O)NC1CCCCC1	Tyrosyl-tRNA synthetase, putative (Trypanosoma cruzi (strain CL Brener))	Percent Effect	1.07
COc1ccc(NC(=O)CNc2cccc3c2CCCC3)c(OC)c1	Tyrosyl-tRNA synthetase, putative (Trypanosoma cruzi (strain CL Brener))	Percent Effect	-6.45
COC[C@]12COC[C@H]1CN(Cc1cc(OC)cc(OC)c1)C2	Tyrosyl-tRNA synthetase, putative (Trypanosoma cruzi (strain CL Brener))	Percent Effect	1.08
CCN(Cc1ccco1)C(=O)c1cc(OC)c2c(c1)OCCO2	Tyrosyl-tRNA synthetase, putative (Trypanosoma cruzi (strain CL Brener))	Percent Effect	0
CC(NC(=O)NCc1cc[nH]n1)c1ccc2c(c1)CCC(=O)N2 (configuration not stated)	Tyrosyl-tRNA synthetase, putative (Trypanosoma cruzi (strain CL Brener))	Percent Effect	4.85
COc1ccccc1N1CCC(CNCc2cccc(C#N)c2)C1 (configuration not stated)	Tyrosyl-tRNA synthetase, putative (Trypanosoma cruzi (strain CL Brener))	Percent Effect	13.3
FC(F)(F)c1cccc(C2(CNCc3ccncc3)CCOCC2)c1	Tyrosyl-tRNA synthetase, putative (Trypanosoma cruzi (strain CL Brener))	Percent Effect	7.92
